Provide the recorded T/C for the entries that follow.
system: BDF1 mice, B16 melanoma ip, median survival T/C; experiment: NCI In Vivo Anticancer Drug Screen. Data for tumor model B16 Melanoma (intraperitoneal) in B6D2F1 (BDF1) mice; conditions: endpoint: median survival time; dose: 3.12 mg/kg/injection; schedule: Q01DX009 (ip); vehicle: saline; higher = longer survival
Toxic doses and inconclusive results are not listed.

Inquiry: Report T/C for CN(C)CCN1C(=O)CC(c2ccccc2)Sc2ccccc21 (stereo unspecified)
Reply text: 115 % of control

Inquiry: Report T/C for CCCCCC(O)C1C(=O)OC(C)C(O)/C=C/C=C/C=C/C=C/C=C(\C)C(O)C(O)C(O)CC(O)CC(O)CC(O)CC(O)CC1O (stereo unspecified)
Reply text: 103 % of control

Inquiry: Report T/C for C=C1C(=O)O[C@@H]2[C@H](O)[C@@H](C)[C@@H]3C=CC(=O)[C@@]3(C)[C@H](OC(=O)C=C(C)C)[C@H]12
Reply text: 102 % of control

Inquiry: Report T/C for NC1=NCN(C2OC(CO)C(O)C2O)C(=O)N1 (stereo unspecified)
Reply text: 96 % of control

Inquiry: Report T/C for C=CCC(N)Cc1ccccc1 (stereo unspecified)
Reply text: 105 % of control

Inquiry: Report T/C for CCOc1ccc(-c2nc3ccc(-c4nc5ccc(N6CCN(C)CC6)cc5[nH]4)cc3[nH]2)cc1
Reply text: 106 % of control

Inquiry: Report T/C for CC(CCc1ccccc1)NN (stereo unspecified)
Reply text: 122 % of control

Inquiry: Report T/C for CN(C)CCCN1c2ccccc2CCc2ccccc21
Reply text: 95 % of control

Inquiry: Report T/C for COc1ccc(/C=N/n2c3ccccc3c3ccccc32)cc1OCCCN(C)C
Reply text: 105 % of control

Inquiry: Report T/C for OCCNCCN1CCN(CCCN2c3ccccc3Sc3ccc(C(F)(F)F)cc32)CC1
Reply text: 108 % of control

Inquiry: Report T/C for COc1cc(CN(C)C2CCCCC2)cc(OC)c1OC
Reply text: 105 % of control

###

test system: BDF1 mice, B16 melanoma ip, median survival T/C; assay: NCI In Vivo Anticancer Drug Screen. Data for tumor model B16 Melanoma (intraperitoneal) in B6D2F1 (BDF1) mice; conditions: endpoint: median survival time; dose: 25.0 mg/kg/injection; schedule: Q01DX009 (ip); vehicle: other; higher = longer survival
Toxic doses and inconclusive results are not listed.
Quantity: T/C

Inquiry: Report T/C for CC1(CC(C)(C)C2CCCCC2)OCCO1
Reply text: 93 % of control

Inquiry: Report T/C for COC(=O)C(CSCc1ccccc1)NC(=O)CCNC(=O)OCc1ccccc1 (stereo not given)
Reply text: 107 % of control

Inquiry: Report T/C for COc1ccc(/C=C(\C)[N+](=O)[O-])cc1OC
Reply text: 93 % of control

Inquiry: Report T/C for Oc1ccc(SCc2ccc(NCc3ccccc3)cc2)cc1
Reply text: 97 % of control

Inquiry: Report T/C for C/C=C/CC(C/C=C/C)C1CC[N-]CC1.C/C=C/CC(C/C=C/C)C1CC[N-]CC1.[Cl][Pt+2]([Cl])([Cl])[Cl]
Reply text: 96 % of control

###

Provide the recorded T/C for the entries that follow.
system: BDF1 mice, B16 melanoma ip, median survival T/C; assay: NCI In Vivo Anticancer Drug Screen. Data for tumor model B16 Melanoma (intraperitoneal) in B6D2F1 (BDF1) mice; settings: endpoint: median survival time; dose: 50.0 mg/kg/injection; schedule: Q01DX009 (ip); vehicle: saline with Tween-80; higher = longer survival
Toxic doses and inconclusive results are not listed. Peptide text beside a SMILES is read from it. * marks the point of attachment. Cbz = O=C(OCc1ccccc1)*

Inquiry: Under BDF1 mice, B16 melanoma ip, median survival T/C: report T/C of C=CS(=O)(=O)c1ccccc1 .
Reply text: 98 % of control

Inquiry: Under BDF1 mice, B16 melanoma ip, median survival T/C: report T/C of CCN(CC)CCCCNc1ccc(NCCCCN(CC)CC)c2c1C(=O)c1ccccc1C2=O .
Reply text: 99 % of control

Inquiry: Under BDF1 mice, B16 melanoma ip, median survival T/C: report T/C of Nc1ccccc1SC1CC(=O)N(c2ccc(I)cc2)C1=O (stereo unspecified) .
Reply text: 88 % of control

Inquiry: Under BDF1 mice, B16 melanoma ip, median survival T/C: report T/C of ClCC1C(CCl)C2(Cl)C(Cl)=C(Cl)C1(Cl)C2(Cl)Cl (stereo unspecified) .
Reply text: 92 % of control

Inquiry: Under BDF1 mice, B16 melanoma ip, median survival T/C: report T/C of O=C(NC(Cc1ccccc1)C(=O)NC(Cc1ccc(O)cc1)C(=O)O)OCc1ccccc1 (stereo not drawn) (Cbz-Phe-Tyr-OH; configuration not given here) .
Reply text: 105 % of control

Inquiry: Under BDF1 mice, B16 melanoma ip, median survival T/C: report T/C of O=C(Cc1ccccc1)NC/C=N/O .
Reply text: 107 % of control

###

Provide the recorded T/C for the entries that follow.
test system: BDF1 mice, B16 melanoma ip, median survival T/C; test: NCI In Vivo Anticancer Drug Screen. Data for tumor model B16 Melanoma (intraperitoneal) in B6D2F1 (BDF1) mice; details: endpoint: median survival time; dose: 1.25 mg/kg/injection; schedule: Q01DX009 (ip); vehicle: Klucel (hydroxypropylcellulose) (HPC); higher = longer survival
Toxic doses and inconclusive results are not listed.

Inquiry: Under BDF1 mice, B16 melanoma ip, median survival T/C: report T/C of C[C@]12CC[C@H](O)C[C@@]1(O)CC[C@@H]1[C@@H]2CC[C@]2(C)[C@@H](c3ccc(=O)oc3)CC[C@]12O .
Reply text: 94 % of control

Inquiry: Under BDF1 mice, B16 melanoma ip, median survival T/C: report T/C of CC(C)=CCC(O)C1=CC(=O)c2c(O)ccc(O)c2C1=O (stereo unspecified) .
Reply text: 107 % of control

Inquiry: Under BDF1 mice, B16 melanoma ip, median survival T/C: report T/C of CCCCCCCCCCCCCCCCCC(=O)[O][Pb]([CH3])([CH3])[CH3] .
Reply text: 99 % of control

Inquiry: Under BDF1 mice, B16 melanoma ip, median survival T/C: report T/C of CCCCCCCC(=O)O[C@H]1[C@H]2[C@@H](CC1(C)C)C(=O)[C@]13O[C@H]1C(=O)[C@]1(CO1)[C@]23C .
Reply text: 100 % of control

Inquiry: Under BDF1 mice, B16 melanoma ip, median survival T/C: report T/C of Cn1ncc2c(N)ncnc21 .
Reply text: 102 % of control

Inquiry: Under BDF1 mice, B16 melanoma ip, median survival T/C: report T/C of CCCCCn1c(C)cc(/C=C\c2ccc3cc(C)ccc3[n+]2C)c1C .
Reply text: 87 % of control

###

Provide the recorded T/C for the entries that follow.
tested on: BDF1 mice, B16 melanoma ip, median survival T/C; assay: NCI In Vivo Anticancer Drug Screen. Data for tumor model B16 Melanoma (intraperitoneal) in B6D2F1 (BDF1) mice; settings: endpoint: median survival time; dose: 50.0 mg/kg/injection; schedule: Q01DX009 (ip); vehicle: saline with Tween-80; higher = longer survival
Toxic doses and inconclusive results are not listed.

Inquiry: Report T/C for [O-][n+]1c(CCl)nc2cccc3c2c1-c1ccccc1-3
Reply text: 96 % of control

Inquiry: Report T/C for CN=C(N)N/N=C(\C)c1ccc2oc3ccc(/C(C)=N/NC(N)=NC)cc3c2c1
Reply text: 102 % of control

Inquiry: Report T/C for CC1=CC(=NN=c2cc(C)n([O-])c(C)c2)C=C(C)[N+]1=O
Reply text: 118 % of control

Inquiry: Report T/C for CCOC(=O)N1C(=O)c2ccccc2C1=O
Reply text: 94 % of control

Inquiry: Report T/C for CSc1nc2cc(C)c(C)cc2[nH]1
Reply text: 97 % of control

Inquiry: Report T/C for OC1CCCC2CCCNC12 (stereo not given)
Reply text: 96 % of control

Inquiry: Report T/C for CN(CC(=O)NC(Cc1c[nH]c2ccccc12)C(=O)O)C(=O)OCc1ccccc1 (stereo not given)
Reply text: 113 % of control

Inquiry: Report T/C for CC(=O)OC1CCC(C(C)(C)C)CC1 (stereo not given)
Reply text: 113 % of control

Inquiry: Report T/C for Nc1ccc(N=Nc2ccc(S(=O)(=O)O)cc2)cc1
Reply text: 97 % of control

Inquiry: Report T/C for Nc1ccc(-c2c(N)ncc3ccccc23)cc1
Reply text: 103 % of control

Inquiry: Report T/C for CN1CCc2cc3c(cc2C(=O)Cc2ccc4c(c2C1)OCO4)OCO3
Reply text: 112 % of control

Inquiry: Report T/C for O=C(NC(C(=O)O)c1ccccc1)OCc1ccccc1 (stereo not given)
Reply text: 97 % of control

Inquiry: Report T/C for O=C(OC1C=CC2CCC1C2)c1ccc([N+](=O)[O-])cc1 (stereo not given)
Reply text: 91 % of control

Inquiry: Report T/C for COc1ccc([Se][Se]c2ccc(OC)cc2NC(C)=O)c(NC(C)=O)c1
Reply text: 102 % of control

Inquiry: Report T/C for COC(=O)C1=CO[C@@H](C)[C@@H]2Cn3ccc4c5ccccc5nc-4c3C[C@H]12
Reply text: 89 % of control

Inquiry: Report T/C for C/C(=C\c1ccc(C)cc1)[N+](=O)[O-]
Reply text: 96 % of control

Inquiry: Report T/C for CC(=O)OC1C(OC(C)=O)C2C(C)CC3OC(=O)C(C)C3CC2(C)C1OC(C)=O (stereo not given)
Reply text: 110 % of control

Inquiry: Report T/C for Cn1c(C[N+](C)(C)C)cc2ccccc21
Reply text: 94 % of control

Inquiry: Report T/C for CC(C)=CCc1c2c(c(O)c3c(=O)c(-c4ccc(O)c(O)c4)coc13)C=CC(C)(C)O2
Reply text: 94 % of control

Inquiry: Report T/C for O=C(Nc1ccccc1)c1ccc(Cl)c([N+](=O)[O-])c1
Reply text: 111 % of control

Inquiry: Report T/C for O=S(=O)(c1ccccc1)N1CN2CCN(C2)C1
Reply text: 99 % of control

Inquiry: Report T/C for CN(C)c1ccc(/C=C2\C=Cc3ccccc32)cc1
Reply text: 92 % of control

Inquiry: Report T/C for O=[N+]([O-])c1ccc(CSc2ncnc3c2ncn3C2OC(CO)C(O)C2O)cc1 (stereo not given)
Reply text: 86 % of control

Inquiry: Report T/C for CC(C)(C)OC(=O)NC(CCCCNC(=O)OCc1ccccc1)C(=O)O (stereo not given)
Reply text: 107 % of control

Inquiry: Report T/C for OC(CCCCl)CC(O)(C(F)(F)F)C(F)(F)F (stereo not given)
Reply text: 111 % of control

Inquiry: Report T/C for CC(=O)OCC1OC(n2ncc(=O)[nH]c2=O)C(OC(C)=O)C1OC(C)=O (stereo not given)
Reply text: 106 % of control

Inquiry: Report T/C for COc1ccccc1NC(=O)Nc1ccc(C(=O)OCC(C)C)cc1
Reply text: 100 % of control

Inquiry: Report T/C for Nc1ccc(Cl)cc1N
Reply text: 102 % of control

Inquiry: Report T/C for C=CCCCCCCCCC(=O)N(CCOC)CCOC
Reply text: 102 % of control

Inquiry: Report T/C for O=C(O)CCS(=O)(=O)CCC(=O)O
Reply text: 102 % of control

Inquiry: Report T/C for Clc1ncnc2nc[nH]c12
Reply text: 86 % of control

Inquiry: Report T/C for CC(=O)Nc1ccc([I+]c2ccc([N+](=O)[O-])cc2)cc1
Reply text: 87 % of control

Inquiry: Report T/C for Cc1c2c(cc3c1[nH]c1ccccc13)C=NCC2
Reply text: 107 % of control

Inquiry: Report T/C for CCN(CC)CCC(=O)c1ccccc1
Reply text: 108 % of control

Inquiry: Report T/C for CCCC(C(CC)CN(C)C)N(C)C (stereo not given)
Reply text: 94 % of control

Inquiry: Report T/C for CCSCCC1(CCC(C)C)C(=O)NC(=Nc2ccccc2)NC1=O (stereo not given)
Reply text: 91 % of control

Inquiry: Report T/C for CCCCCCCCCCCCCCCCCCNC(=O)Nc1ccccc1CC
Reply text: 86 % of control

Inquiry: Report T/C for C/C(=C\c1ccccc1)[N+](=O)[O-]
Reply text: 105 % of control

Inquiry: Report T/C for CSCCC(C#N)(CCN(C)C)c1ccccc1 (stereo not given)
Reply text: 107 % of control

Inquiry: Report T/C for Cc1cc2ncn(CC(=O)O)c2cc1C
Reply text: 97 % of control

Inquiry: Report T/C for C(COCCOCC1CO1)OCCOCC1CO1 (stereo not given)
Reply text: 103 % of control

Inquiry: Report T/C for O=C1NC(=O)C(Cc2ccccc2)(c2ccccc2)N1 (stereo not given)
Reply text: 105 % of control

Inquiry: Report T/C for CCCCCCCCCCOCCCCCCCCCC
Reply text: 95 % of control

Inquiry: Report T/C for C=CCNc1ccc(OC)cc1
Reply text: 95 % of control

Inquiry: Report T/C for Cc1cc(N)c2cc(NC(=O)CCCCCC(=O)Nc3ccc4nc(C)cc(N)c4c3)ccc2n1
Reply text: 110 % of control

Inquiry: Report T/C for O=C(OC1COC(n2c(=O)oc3ccc(F)cc32)C(OC(=O)c2ccccc2)C1OC(=O)c1ccccc1)c1ccccc1 (stereo not given)
Reply text: 93 % of control

Inquiry: Report T/C for CC(C)CC(Br)C(=O)NCC(=O)O (stereo not given)
Reply text: 95 % of control

Inquiry: Report T/C for COc1cc2cc3c4cc(OC)c(OC)cc4cc[n+]3c(C)c2cc1OC (tested in a mixture with another compound)
Reply text: 110 % of control

Inquiry: Report T/C for O=C(NC(Cc1ccccc1)C(=O)O)c1ccccc1 (stereo not given)
Reply text: 90 % of control

Inquiry: Report T/C for CCNc1nc(NC(C)C)nc(SC)n1
Reply text: 117 % of control
